Known pKd of a selection of binders
- assayed target: COVID-19 S1 Spike Protein Mutant N501Y (SARS-CoV-2), P0DTC2
- experiment: FP direct binding
Non-standard residues stand in square brackets, D forms with d. No end group written: not given here. Sar = CNCC(=O)O
# log scale: pKd equals minus log10 of the concentration in mol/L

ACEDHDWVYCSTCA[Sar][Sar][Sar][Sar][Sar][Sar][KFl] (cysteine pairing not given here) [BCY15299] has a reported pKd of 6.03

ACRQSQCDWWAIRSFCA[Sar][Sar][Sar][Sar][Sar][Sar][KFl] (cysteine pairing not given here) [BCY15324] has a reported pKd of 5.90
